system: Saccharomyces cerevisiae; assay: protein stability index of tFT-peptide fusion (C-terminal peptide) (PSI (0-1 scale)); higher = more stable (slower turnover); settings: genetic background: wild type; temperature: 30 C
Consider the following sequences and their measured protein stability index readings.
API note: the answer field is a bare number with no unit suffix.

The following sequences have reported results that may help.
>>> reported_value("VAIRLLCSPLGK")
0.64
>>> reported_value("PFPPPTDQTAHR")
0.728
>>> reported_value("IKKDSRQRKRDE")
0.648

Provide only the value of recorded protein stability index for "PLRLPPAPPPPP"
0.617

Provide only the value of recorded protein stability index for "GGSGAVRSVGEW"
0.668

Provide only the value of recorded protein stability index for "VDSTCLLITLLA"
0.41

Provide only the value of recorded protein stability index for "VKPIFTEYGRYK"
0.626

Provide only the value of recorded protein stability index for "VAFILVVCKGIG"
0.202

Provide only the value of recorded protein stability index for "RSTDKLLGLKKM"
0.652

====

test system: Saccharomyces cerevisiae; assay: protein stability index of tFT-peptide fusion (C-terminal peptide) (PSI (0-1 scale)); higher = more stable (slower turnover); details: genetic background: wild type; temperature: 30 C
Label rule, in plain words: protein stability index of 0.7 and up is true, under 0.7 is false.

>>> label("EGTKEKGEKRRR")
"false"
>>> label("GVQFRRPLIPIY")
"false"
>>> label("FLLPPAPRPAPP")
"true"
>>> label("SPSSLPRPLFLS")
"false"
>>> label("LSGSSNRVLFDL")
"true"
>>> label("VRATNLSSVGIF")
"false"

Field: next sequence
Form field: protein stability index at least 0.7? Entry: "PSVPPRVCSFSI"
true

====

tested on: Saccharomyces cerevisiae; assay: protein stability index of tFT-peptide fusion (C-terminal peptide) (PSI (0-1 scale)); higher = more stable (slower turnover); settings: genetic background: wild type; temperature: 30 C
Bucketed by reported protein stability index, buckets being lower range: < 0.6; middle range: ≥ 0.6 and < 0.7; upper range: ≥ 0.7

>>> label("DQRCRLQGRYQR")
"upper range"
>>> label("TPNLHPPSAATP")
"middle range"
>>> label("RVRASGIGRFVE")
"middle range"
>>> label("FLQRSLTNMNSL")
"middle range"

Bin? "PPPPSRLPYNPF"
middle range

Bin? "GAAARSGSRKEL"
middle range

Bin? "VVQCRFPTPCVV"
lower range

====

test system: Saccharomyces cerevisiae; experiment: protein stability index of tFT-peptide fusion (C-terminal peptide) (PSI (0-1 scale)); higher = more stable (slower turnover); details: genetic background: wild type; temperature: 30 C
Consider the following sequences and their measured protein stability index readings.
API note: the answer field is a bare number with no unit suffix.

The following sequences have reported results that may help.
>>> reported_value("ERAYMYYLRNGK [NAM9 C-terminal 12 aa]")
0.625
>>> reported_value("YEEFALRSGSSS [AFG2 C-terminal 12 aa]")
0.676
>>> reported_value("NASEIYVKRKTG [DDL1 C-terminal 12 aa]")
0.204
>>> reported_value("SWETKLKQNILE [CSN9 C-terminal 12 aa]")
0.644
>>> reported_value("TANKVELMANIV [MAK31 C-terminal 12 aa]")
0.686
>>> reported_value("DEWLNLHINIVE [SHU2 C-terminal 12 aa]")
0.717

Provide only the value of recorded protein stability index for LTSIWKTILFFK [YEL076C C-terminal 12 aa]
0.468

Provide only the value of recorded protein stability index for MNNLFNPHSHDS [GTA1 C-terminal 12 aa]
0.722

Provide only the value of recorded protein stability index for LCFSKDIQLDFQ [FIG4 C-terminal 12 aa]
0.672

Provide only the value of recorded protein stability index for PVHLQTVGLVDC [PIR5 C-terminal 12 aa]
0.672

Provide only the value of recorded protein stability index for RLKSQNVVTYYK [NIP100 C-terminal 12 aa]
0.692

Provide only the value of recorded protein stability index for NELSLRPATERI [YBL100W-A C-terminal 12 aa]
0.711

Provide only the value of recorded protein stability index for DVLDDLYRKLQR [CSE2 C-terminal 12 aa]
0.699

Provide only the value of recorded protein stability index for GALLAGAAALLL [CCW12 C-terminal 12 aa]
0.698
